Target: Bombyx mori EcR (VP16 fusion, CVBE switch construct) (Bombyx mori)
Sequence (P49881 86-606): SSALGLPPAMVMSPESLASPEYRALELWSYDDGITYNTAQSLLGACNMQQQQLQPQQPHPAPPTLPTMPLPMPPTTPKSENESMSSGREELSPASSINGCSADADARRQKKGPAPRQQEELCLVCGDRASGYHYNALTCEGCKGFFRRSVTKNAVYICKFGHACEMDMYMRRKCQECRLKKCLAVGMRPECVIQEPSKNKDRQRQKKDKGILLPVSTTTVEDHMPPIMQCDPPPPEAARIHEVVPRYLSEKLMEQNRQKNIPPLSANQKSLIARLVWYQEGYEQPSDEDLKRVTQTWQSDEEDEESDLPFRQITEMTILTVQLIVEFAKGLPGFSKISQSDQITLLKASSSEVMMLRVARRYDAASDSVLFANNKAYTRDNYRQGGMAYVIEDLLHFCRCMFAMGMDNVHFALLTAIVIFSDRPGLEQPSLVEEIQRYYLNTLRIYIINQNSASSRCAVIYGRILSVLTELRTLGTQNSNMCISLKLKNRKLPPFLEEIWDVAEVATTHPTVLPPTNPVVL
Sequence (P19793 whole entry partner, the tested form may be a part): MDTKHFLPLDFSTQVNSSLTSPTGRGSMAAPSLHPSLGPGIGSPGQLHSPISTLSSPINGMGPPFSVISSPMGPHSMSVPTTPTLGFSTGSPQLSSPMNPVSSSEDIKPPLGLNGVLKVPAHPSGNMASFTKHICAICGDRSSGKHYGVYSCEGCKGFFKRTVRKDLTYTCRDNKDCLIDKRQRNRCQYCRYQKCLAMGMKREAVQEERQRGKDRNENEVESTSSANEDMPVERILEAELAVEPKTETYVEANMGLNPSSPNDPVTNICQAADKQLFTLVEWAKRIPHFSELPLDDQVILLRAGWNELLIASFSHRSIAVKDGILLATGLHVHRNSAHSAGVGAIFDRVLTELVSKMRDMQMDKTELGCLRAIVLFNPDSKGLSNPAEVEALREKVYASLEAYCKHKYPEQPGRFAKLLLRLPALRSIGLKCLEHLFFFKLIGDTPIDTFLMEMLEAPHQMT
Experiment: Z3 Assay (HEK-293 cells with CVBE and 6XEcRE LacZ, β-galactosidase reporter)
Returns: string. Value is class 1 if measured EC50 is below 200 nM, and class 0 if it is greater than or equal to it.

Inquiry: Hi there! Is EC50 for COc1ccc(C(=O)N(NC(=O)c2ccc3c(c2C)OCCO3)C(C)(C)C)c(OC)n1 [RG-115517] below 200 nM, do you know?
Reply text: class 1

Inquiry: Hi there! Is EC50 for CNCc1c(OC)cccc1C(=O)NN(C(=O)c1cc(C)cc(C)c1)C(C)(C)C [RG-115079] below 200 nM, do you know?
Reply text: class 0

Inquiry: Hi there! Is EC50 for CCc1c(OC)cccc1C(=O)NN(C(=O)c1cc(C)cc(/C=N/NC(N)=O)c1)C(C)(C)C [RG-115429] below 200 nM, do you know?
Reply text: class 0

Inquiry: Hi there! Is EC50 for COc1cccc(C(=O)NN(C(=O)c2cc(C)cc(C)c2)C(C)(C)C)c1CCl [RG-115490] below 200 nM, do you know?
Reply text: class 0

Inquiry: Hi there! Is EC50 for CCC(N(NC(=O)c1cccc(OC)c1C)C(=O)c1cc(C)cc(C)c1)C(C)(C)C (centres unmarked) [RG-115819] below 200 nM, do you know?
Reply text: class 1

Inquiry: Hi there! Is EC50 for COc1cccc(C(=O)NN(C(=O)c2cc(C)cc(C)c2)C(C)(C)C)c1CSC [RG-115358] below 200 nM, do you know?
Reply text: class 0

Inquiry: Hi there! Is EC50 for CCC(N(NC(=O)c1cccc(C)c1C)C(=O)c1cc(C)cc(C)c1)C(C)(C)C (centres unmarked) [RG-103309] below 200 nM, do you know?
Reply text: class 1

Inquiry: Hi there! Is EC50 for CCc1ccc(C(=O)NN(C(=O)c2cc(C)cc(C)c2)C(C)(C)C)c(F)c1 [RG-101523] below 200 nM, do you know?
Reply text: class 0

Inquiry: Hi there! Is EC50 for CCOC(=O)C(C)(C)N(NC(=O)c1cccc(OC)c1CC)C(=O)c1cc(C)cc(C)c1 [RG-115025] below 200 nM, do you know?
Reply text: class 0

Inquiry: Hi there! Is EC50 for CCc1c(OC)cccc1C(=O)NN(C(=O)c1cc(C)cc(C)c1)C(C)(C)C(=O)O [RG-115044] below 200 nM, do you know?
Reply text: class 0

Inquiry: Hi there! Is EC50 for COc1cccc(C(=O)NN(C(=O)c2cc(C)cc(C)c2)C(C)(C)C)c1CS(C)(=O)=O [RG-115408] below 200 nM, do you know?
Reply text: class 0

Inquiry: Hi there! Is EC50 for CCc1c(OC)cccc1C(=O)NN(C(=O)c1cc(C)cc(C)c1)C(C)(C)CO[Si](C)(C)C(C)(C)C [RG-115665] below 200 nM, do you know?
Reply text: class 0

Inquiry: Hi there! Is EC50 for CCc1c(OC)cccc1C(=O)NN(C(=O)c1cc(C)cc(C)c1)C(C)(C)C [RG-102240] below 200 nM, do you know?
Reply text: class 0

Inquiry: Hi there! Is EC50 for CCCC(N(NC(=O)c1cccc(OC)c1CC)C(=O)c1cc(OC)c(C)c(OC)c1)C(C)(C)C (centres unmarked) [RG-115829] below 200 nM, do you know?
Reply text: class 1

Inquiry: Hi there! Is EC50 for COc1cc(C(=O)N(NC(=O)c2ccc3c(c2C)OCCO3)C(C)(C)C)cc(OC)c1C [RG-115637] below 200 nM, do you know?
Reply text: class 1

Inquiry: Hi there! Is EC50 for CCc1c(OC)cccc1C(=O)NN(C(=O)c1cc(C)cc(C)c1)C(C)(C)COC [RG-115006] below 200 nM, do you know?
Reply text: class 0

Inquiry: Hi there! Is EC50 for Cc1c(C(=O)NN(C(=O)c2cc(F)c(F)c(F)c2)C(C)(C)C)ccc2c1CCCO2 [RG-115575] below 200 nM, do you know?
Reply text: class 1

Hello, the source for this data is patent US9102648B1, in case you need it.
